Source of measurements: BindingDB's records for doi:10.1016/0960-894X(94)85036-4

Biological target: Type-1 angiotensin II receptor (Rattus norvegicus)
Assay: […] inhibitory concentration against Angiotensin II receptor, type 1 of rat adrenal membrane
RECORDED_ENDPOINT: IC50 (nM)

> print(dat)
                                        smi  unit.spec  readout.number
1  CCCCOC(=O)NS(=O)(=O)c1ccccc1-c1ccc(Cn2c(CCCC)nc3ccc(NC(=O)N(C)C(C)C)cc3c2=O)cc1         nM               4
